All figures here come from patent US20170306005A1.

# tgt: T1, human tenascin-C rCd4-His-FBG (rat; human, UniProt P05540 207-392, limits assumed)
# T1 construct: domain: domains 3 and 4; C-terminal FBG fusion; biotinylated in the ELISA and HTRF screens; also called Hu TNC; human TNC rCd4-His-FBG; not shown: 6His tag
# T1 sequence (chain (part 1 of 2)): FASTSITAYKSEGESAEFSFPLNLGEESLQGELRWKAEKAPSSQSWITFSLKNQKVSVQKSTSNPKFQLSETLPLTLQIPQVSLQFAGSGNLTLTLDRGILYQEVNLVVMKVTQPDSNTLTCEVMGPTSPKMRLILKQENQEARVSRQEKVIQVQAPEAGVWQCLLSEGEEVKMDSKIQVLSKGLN
# T1 sequence (chain (part 2 of 2)): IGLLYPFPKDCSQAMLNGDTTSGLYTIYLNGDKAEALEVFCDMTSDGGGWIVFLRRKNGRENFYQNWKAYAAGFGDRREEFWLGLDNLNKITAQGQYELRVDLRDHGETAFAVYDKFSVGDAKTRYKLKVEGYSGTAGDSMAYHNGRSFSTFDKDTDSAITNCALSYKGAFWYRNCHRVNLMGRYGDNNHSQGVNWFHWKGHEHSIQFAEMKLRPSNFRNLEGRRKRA
# run description: SPR, captured purified IgG4, 37 C
readout: kon (M⁻¹ s⁻¹)

binder="165_13_C3 human IgG4 (antibody, V domains shown, also called IgG4 C3; C3 IgG4 MAb) VH: QVQLVESGGGLVQPGRSLRLSCAASGFTFDDYAMHWVRQAPGKGLEWVSGISGSGGSTYYADSVKGRFTISRDNAKNSLYLQMNSLRAEDTALYYCAKSYQSDEDAFDIWGQGTMVTVSS VL: DIQMTQSPASLPTPVGDRVTITCRASQYIQGFLNWYQQKPGKAPKLLIYDASNLETGVPSRFSGSGSGTDFTLTISSLQPEDFATYYCQQSYSTPQTFGQGTKVDIKR" result_units="M⁻¹ s⁻¹" quantitative_readout=1.16e+07
